Assay: MTT cytotoxicity assay, HL60 cells
Type: cell-based
Conditions: human, hl60 cells, Asperlin 10 μg/mL, HL60, 30 min.; read-out: % Inhibition MTT Reduction
assay-readout: cytotoxicity at 0.5 h (%)
Report as a plain number; the unit % is understood.

Q) I would be grateful if you could share the reported cytotoxicity at 0.5 h for CC(=O)OC1C=CC(=O)OC1C1OC1C (stereo not shown) [Asperlin] .
A) 8

====

Assay: MTT cytotoxicity assay, U937 cells
Assay type: cell-based, human
Settings: human, u937 cells, Asperlin 40 μg/mL, U937, 30 min.; read-out: % Inhibition MTT Reduction
assay-readout: cytotoxicity at 0.5 h (%)
Report as a plain number; the unit % is understood.

Q) I would be grateful if you could share the reported cytotoxicity at 0.5 h for CC(=O)OC1C=CC(=O)OC1C1OC1C (stereo not shown) [Asperlin] .
A) 11
